Catalogue of kinact/KI values
Target: BTK (Homo sapiens, UniProt Q06187)
Sequence (Q06187 whole entry): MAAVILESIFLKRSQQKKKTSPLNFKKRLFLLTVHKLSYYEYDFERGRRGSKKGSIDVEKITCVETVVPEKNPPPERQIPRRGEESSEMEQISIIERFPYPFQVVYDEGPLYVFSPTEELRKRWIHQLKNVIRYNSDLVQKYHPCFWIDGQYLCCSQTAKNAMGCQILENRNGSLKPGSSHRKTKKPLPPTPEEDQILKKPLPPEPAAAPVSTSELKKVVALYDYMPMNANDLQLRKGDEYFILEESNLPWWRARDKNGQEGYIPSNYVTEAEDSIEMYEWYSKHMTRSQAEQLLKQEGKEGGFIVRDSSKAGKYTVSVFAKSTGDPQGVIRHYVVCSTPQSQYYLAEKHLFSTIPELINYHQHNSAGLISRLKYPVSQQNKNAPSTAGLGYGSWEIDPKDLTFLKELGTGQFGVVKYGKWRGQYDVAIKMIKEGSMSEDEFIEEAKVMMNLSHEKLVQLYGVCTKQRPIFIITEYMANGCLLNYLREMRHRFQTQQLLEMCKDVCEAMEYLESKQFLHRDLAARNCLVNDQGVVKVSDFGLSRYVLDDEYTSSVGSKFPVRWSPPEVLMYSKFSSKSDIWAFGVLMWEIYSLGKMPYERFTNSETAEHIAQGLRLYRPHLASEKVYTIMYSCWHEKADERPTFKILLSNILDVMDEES
Assay: Assay to determine BTK inactivation rate in human whole blood (ELISA of unoccupied BTK)
Format: cell-based
Design: Human whole blood is obtained from StemExpress; tissue StemExpress; host or cells: human whole blood
Conditions: 37° C., 5, 15, 30, 60 minutes, read-out: BTK hWB Kinact/Ki

Sample answers from the record:
Value of measured kinact/KI for the entry C=CC(=O)N1CCc2c(-c3c(F)cc(C(N)=O)c4[nH]c(C)c(Cl)c34)cccc2C1C (racemic) [Compound 22a] : 1670 to 16700 M⁻¹ s⁻¹

kinact/KI for "CC#CC(=O)N[C@H]1C[C@H](F)CN(c2c(F)cc(C(N)=O)c3[nH]c(C)c(Cl)c23)C1" is 1670 to 16700 M⁻¹ s⁻¹

# kinact/KI (compound: "C=CC(=O)N[C@H]1C[C@H](F)CN(c2c(F)cc(C(N)=O)c3[nH]c(C)c(C)c23)C1" ) is > 16700 M⁻¹ s⁻¹

Recorded kinact/KI (compound CC#CC(=O)N1CCC[C@H]1c1nc(-c2ccc(C(=O)Nc3ccccn3)cc2)c2c(N)nccn12 [Acalabrutinib, reference compound] ): < 1670 M⁻¹ s⁻¹

Record "C=CC(=O)N1CCC[C@H](c2c(F)c(F)c(C(N)=O)c3[nH]c(C)c(Cl)c23)C1" . Reported kinact/KI: > 16700 M⁻¹ s⁻¹

Item: "CC#CC(=O)N[C@H]1C[C@@H](F)CN(c2c(F)cc(C(N)=O)c3[nH]c(C)c(Cl)c23)C1" | kinact/KI: 1670 to 16700 M⁻¹ s⁻¹

Lookup result for "CC#CC(=O)N[C@H]1C[C@@H](F)CN(c2c(F)cc(C(N)=O)c3[nH]c(C)c(C)c23)C1" ; measured kinact/KI: > 16700 M⁻¹ s⁻¹

Sample C=CC(=O)N1CCc2c(cccc2-c2c(F)cc(C(N)=O)c3[nH]c(C)c(Cl)c23)C1 [Compound 20a] ; kinact/KI observed: < 1670 M⁻¹ s⁻¹

kinact/KI in this record for "C=CC(=O)N1CCC=C(c2c(F)c(F)c(C(N)=O)c3[nH]c(C)c(Cl)c23)C1" : > 16700 M⁻¹ s⁻¹

Entry "C=CC(=O)N1CCC=C(c2c(F)cc(C(N)=O)c3[nH]c(C)c(Cl)c23)C1" — recorded kinact/KI = > 16700 M⁻¹ s⁻¹

***
Item: "CC#CC(=O)N[C@H]1C[C@H](F)CN(c2c(F)cc(C(N)=O)c3[nH]c(C)c(C)c23)C1" | kinact/KI: > 16700 M⁻¹ s⁻¹

Sample CC#CC(=O)N1CCCC2CN(c3c(F)cc(C(N)=O)c4[nH]c(C)c(Cl)c34)CC21 (stereo not drawn) ; kinact/KI observed: < 1670 M⁻¹ s⁻¹

====

Target: BTK (Homo sapiens)
pIC50: −log10 of the molar value.
endpoint_name: pIC50

See these solved cases before continuing.
Reading of pIC50 for C=CC(=O)N1CCC=C(c2c(F)c(F)c(C(N)=O)c3[nH]c(C)c(C#N)c23)C1 [Compound 5] with BTK (Homo sapiens): > 8.00

Tested system BTK (Homo sapiens); pIC50 recorded for C=CC(=O)N[C@H]1C[C@@H](O)CN(c2c(F)cc(C(N)=O)c3[nH]c(C)c(C)c23)C1 [Compound 37] was 7.00 to 8.00

Bench note, BTK (Homo sapiens): entry C=CC(=O)N1Cc2cccc(-c3c(F)cc(C(N)=O)c4[nH]c(C)c(Cl)c34)c2C2(CC2)C1 (single isomer, unassigned) [Compound 24d] , its pIC50 = ≤ 7.00

Further cases:
Summary: C=CC(=O)N1Cc2cccc(-c3c(F)cc(C(N)=O)c4[nH]c(C)c(Cl)c34)c2C2(CC2)C1 [Compound 24a] , BTK (Homo sapiens), pIC50 = 7.00 to 8.00

GET /values?item= C=CC(=O)N1CCC2CCN(c3c(F)cc(C(N)=O)c4[nH]c(C)c(Cl)c34)CC21 (single isomer, unassigned) [Compound 29a] &system= BTK (Homo sapiens) returns pIC50: 7.00 to 8.00
